molecular target: UniProt:P47900; test: Antagonist activity at P2Y1 (unknown origin) expressed in human 1321N1 cells assessed as induction of calcium stimulation by fluo-4 dye based assay
The reader will find reported IC50 values listed item by item below.
Report as a plain number; the unit µM is understood.

Please report the recorded IC50 for CC(C)(C)c1ccccc1Oc1ncccc1NC(=O)NC1C2CC3CC(C2)CC1C3 (stereo not given) .
0.62

Please report the recorded IC50 for CC1CCCCC1NC(=O)Nc1cccnc1Oc1ccccc1C(C)(C)C (stereo not given) .
0.82

Please report the recorded IC50 for CCCCNC(=O)Nc1cccnc1Oc1ccccc1C(C)(C)C .
9.98

====

molecular target: P2Y purinoceptor 1 (Homo sapiens, UniProt P47900); experiment: Antagonist activity at P2Y1 (unknown origin) expressed in human 1321N1 cells assessed as induction of calcium stimulation by fluo-4 dye based assay
Sequence (P47900 whole entry): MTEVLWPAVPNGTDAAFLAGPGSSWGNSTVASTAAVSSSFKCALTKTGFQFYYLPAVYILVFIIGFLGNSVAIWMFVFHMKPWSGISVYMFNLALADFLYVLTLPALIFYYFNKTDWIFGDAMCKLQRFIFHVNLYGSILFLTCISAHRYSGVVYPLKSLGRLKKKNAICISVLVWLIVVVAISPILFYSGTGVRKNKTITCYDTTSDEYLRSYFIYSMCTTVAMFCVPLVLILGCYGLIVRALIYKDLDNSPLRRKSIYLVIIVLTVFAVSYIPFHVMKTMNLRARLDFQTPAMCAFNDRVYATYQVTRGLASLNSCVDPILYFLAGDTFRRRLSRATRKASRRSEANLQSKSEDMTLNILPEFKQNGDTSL
The reader will find reported pIC50 values listed item by item below.
In simple prose, pIC50 is minus the logarithm base ten of a concentration in moles per litre.

CC(C)(C)c1ccccc1Oc1ccccc1NC(=O)Nc1ccc(OC(F)(F)F)cc1 | 5.12
Cc1ccc(NC(=O)Nc2ccc(OC(F)(F)F)cc2)c(Oc2ccccc2C(C)(C)C)n1 | 6.68
CC(C)(C)c1ccccc1Oc1ncccc1NC(=O)NC1CCCC1 | 5.62
COC(=O)c1ccc(NC(=O)Nc2cccnc2Oc2ccccc2C(C)(C)C)s1 | 4.89
CC(C)(C)c1ccccc1Oc1ncccc1NC(=O)Nc1ccc(C(=O)OCc2ccccc2)s1 | 5.14
CCOC(=O)c1ccc(NC(=O)Nc2cccnc2Oc2ccccc2C(C)(C)C)s1 | 4.90

// next item, pIC50 requested
Please report the recorded pIC50 for CC(C)(C)c1ccccc1Oc1ncccc1NC(=O)N[C@H]1CC[C@H](C)CC1 .
5.15
